Emax values, listed per item
biological target: UniProt:P35372; assay: μ-opioid receptor [35S]GTPγS functional assay, HEK-293 or CHO cells (Table 4); format: biochemical; conditions: relative to DAMGO
Output spec: scalar in %, unitless text.

Previously resolved entries follow.
Data request: Give reported Emax value for `COC(=O)[C@@H]1C[C@]23CCN(CC4CC4)[C@H](Cc4ccc(O)cc42)[C@]3(O)C1`
Data returned: 1

Data request: Give reported Emax value for N[C@@H]1CC23CCN(CC4CC4)[C@H](Cc4ccc(O)cc42)[C@]3(O)C1 (stereo in doubt)
Data returned: 1

***
Data request: Give reported Emax value for `N=C(N)NCCNC(=O)[C@@H]1C[C@]23CCN(CC4CC4)[C@H](Cc4ccc(O)cc42)[C@]3(O)C1`
Data returned: 0

Data request: Give reported Emax value for `N=C(N)NCCCCNC(=O)[C@@H]1C[C@]23CCN(CC4CC4)[C@H](Cc4ccc(O)cc42)[C@]3(O)C1`
Data returned: 1

Data request: Give reported Emax value for `O=C(O)[C@@H]1C[C@]23CCN(CC4CC4)[C@H](Cc4ccc(O)cc42)[C@]3(O)C1`
Data returned: 1

Data request: Give reported Emax value for `O=C(NCc1ccc(O)cc1)[C@H]1C[C@]23CCN(CC4CC4)[C@H](Cc4ccc(O)cc42)[C@]3(O)C1`
Data returned: 1

Data request: Give reported Emax value for `O=C(NCc1ccc(Cl)c(Cl)c1)[C@@H]1C[C@]23CCN(CC4CC4)[C@H](Cc4ccc(O)cc42)[C@]3(O)C1`
Data returned: 0

Data request: Give reported Emax value for `NC(=O)[C@H]1C[C@]23CCN(CC4CC4)[C@H](Cc4ccc(O)cc42)[C@]3(O)C1`
Data returned: 1

Data request: Give reported Emax value for `O=C(NCc1ccc(O)cc1O)[C@@H]1C[C@]23CCN(CC4CC4)[C@H](Cc4ccc(O)cc42)[C@]3(O)C1`
Data returned: 1

Data request: Give reported Emax value for `O=C(NCc1ccc(Cl)cc1)[C@@H]1C[C@]23CCN(CC4CC4)[C@H](Cc4ccc(O)cc42)[C@]3(O)C1`
Data returned: 11

* * *

target: μ-opioid receptor (Homo sapiens (Human)); experiment: μ-opioid receptor [35S]GTPγS functional assay, HEK-293 or CHO cells (Table 4); assay type: biochemical; conditions: relative to DAMGO
Measured endpoint: Emax (%)
Output spec: scalar in %, unitless text.

Data request: Give reported Emax value for Oc1ccc2c(c1)C13CCN(CC4CC4)[C@H](C2)[C@]1(O)C[C@H](N(Cc1ccccc1)Cc1ccccc1)C3 (stereo in doubt)
Data returned: 19

Data request: Give reported Emax value for `O=C(NCCc1ccccc1)[C@H]1C[C@]23CCN(CC4CC4)[C@H](Cc4ccc(O)cc42)[C@]3(O)C1`
Data returned: 43

Data request: Give reported Emax value for `Cc1ccc(CNC(=O)[C@H]2C[C@]34CCN(CC5CC5)[C@H](Cc5ccc(O)cc53)[C@]4(O)C2)cc1`
Data returned: 56.5

Okay, next one:
Data request: Give reported Emax value for `NC(=O)CNC(=O)[C@@H]1C[C@]23CCN(CC4CC4)[C@H](Cc4ccc(O)cc42)[C@]3(O)C1`
Data returned: 3.5

* * *

target: μ-opioid receptor (Homo sapiens (Human), UniProt P35372); experiment: μ-opioid receptor [35S]GTPγS functional assay, HEK-293 or CHO cells (Table 4); format: biochemical; details: relative to DAMGO
Measured endpoint: Emax (%)
Output spec: scalar in %, unitless text.

Previously resolved entries follow.
Data request: Give reported Emax value for O=C([C@H]1C[C@]23CCN(CC4CC4)[C@H](Cc4ccc(O)cc42)[C@]3(O)C1)N1CCS(=O)(=O)CC1 [Compound 94]
Data returned: 10.6

Data request: Give reported Emax value for O=C([C@@H]1C[C@]23CCN(CC4CC4)[C@H](Cc4ccc(O)cc42)[C@]3(O)C1)N1CCC(N2CCCC2)CC1 [Compound 88]
Data returned: 0

Data request: Give reported Emax value for COc1ccc2c(c1)[C@]13CCN(CC4CC4)[C@H](C2)[C@]1(O)C[C@H](C#N)C3 [Compound 25]
Data returned: 12

Data request: Give reported Emax value for O=C(NCc1cc(F)cc(F)c1)[C@@H]1C[C@]23CCN(CC4CC4)[C@H](Cc4ccc(O)cc42)[C@]3(O)C1 [Compound 49]
Data returned: 10.5

Data request: Give reported Emax value for O=C(NCc1cccnc1)[C@@H]1C[C@]23CCN(CC4CC4)[C@H](Cc4ccc(O)cc42)[C@]3(O)C1 [Compound 89]
Data returned: 4.5

Data request: Give reported Emax value for O=C(NCc1ccccc1)[C@@H]1C[C@]23CCN(CC4CC4)[C@H](Cc4ccc(O)cc42)[C@]3(O)C1 [Compound 33]
Data returned: 1

Data request: Give reported Emax value for O=C(NCCN1CCOCC1)[C@H]1C[C@]23CCN(CC4CC4)[C@H](Cc4ccc(O)cc42)[C@]3(O)C1 [Compound 93]
Data returned: 28.8

Data request: Give reported Emax value for O=C(NCCCN1CCOCC1)[C@@H]1C[C@]23CCN(CC4CC4)[C@H](Cc4ccc(O)cc42)[C@]3(O)C1 [Compound 85]
Data returned: -1

Okay, next one:
Data request: Give reported Emax value for COc1ccc2c(c1)[C@]13CCN(CC4CC4)[C@H](C2)[C@]1(O)C[C@@H](C(=O)O)C3 [Compound 15]
Data returned: 7

* * *

target: μ-opioid receptor (Homo sapiens (Human), UniProt P35372); experiment: μ-opioid receptor [35S]GTPγS functional assay, HEK-293 cells (Table 6); format: biochemical; settings: relative to DAMGO
Measured endpoint: Emax (%)
Output spec: scalar in %, unitless text.

Previously resolved entries follow.
Data request: Give reported Emax value for `O=C(NCc1ccc(O)c(O)c1)[C@@H]1C[C@]23CCN(CC4CC4)[C@H](Cc4ccc(O)cc42)[C@]3(O)C1`
Data returned: 0.33

Data request: Give reported Emax value for `O=C(NCCN1CCCCC1)[C@H]1C[C@]23CCN(CC4CC4)[C@H](Cc4ccc(O)cc42)[C@]3(O)C1`
Data returned: 29.8

Data request: Give reported Emax value for `CN1CC[C@]23C[C@H](C(=O)NCc4ccc(Cl)cc4Cl)C[C@@]2(O)[C@H]1Cc1ccc(O)cc13`
Data returned: 94.7

Data request: Give reported Emax value for `Cc1c(Cl)cccc1CNC(=O)[C@@H]1C[C@]23CCN(CC4CC4)[C@H](Cc4ccc(O)cc42)[C@]3(O)C1`
Data returned: -1

Data request: Give reported Emax value for `O=C(NCc1ccc(O)cc1Cl)[C@@H]1C[C@]23CCN(CC4CC4)[C@H](Cc4ccc(O)cc42)[C@]3(O)C1`
Data returned: -1

***
Data request: Give reported Emax value for `Cc1ccc(CNC(=O)[C@@H]2C[C@]34CCN(C)[C@H](Cc5ccc(O)cc53)[C@]4(O)C2)cc1`
Data returned: 52

Data request: Give reported Emax value for `Cc1ccc(CNC(=O)[C@@H]2C[C@]34CCN(CC5CC5)[C@H](Cc5ccc(C(N)=O)cc53)[C@]4(O)C2)cc1`
Data returned: -1.21

Data request: Give reported Emax value for `O=C(NCCc1ccc(Cl)c(Cl)c1)[C@@H]1C[C@]23CCN(CC4CC4)[C@H](Cc4ccc(O)cc42)[C@]3(O)C1`
Data returned: 1

Data request: Give reported Emax value for `Cc1ccc(CNC(=O)[C@H]2C[C@]34CCN(CC5CC5)[C@H](Cc5ccc(C(N)=O)cc53)[C@]4(O)C2)cc1`
Data returned: 23.6

Data request: Give reported Emax value for `C[C@@H]1CN(CCNC(=O)[C@H]2C[C@]34CCN(CC5CC5)[C@H](Cc5ccc(O)cc53)[C@]4(O)C2)C[C@H](C)O1`
Data returned: 19.7

Data request: Give reported Emax value for `CN1CC[C@]23C[C@H](C(=O)NCCc4ccccc4)C[C@@]2(O)[C@H]1Cc1ccc(O)cc13`
Data returned: 83.3

Data request: Give reported Emax value for `O=C(NCCc1ccc(Cl)cc1)[C@@H]1C[C@]23CCN(CC4CC4)[C@H](Cc4ccc(O)cc42)[C@]3(O)C1`
Data returned: 1

Data request: Give reported Emax value for `O=C(NCc1cccc(O)c1O)[C@H]1C[C@]23CCN(CC4CC4)[C@H](Cc4ccc(O)cc42)[C@]3(O)C1`
Data returned: 47.4

Data request: Give reported Emax value for `O=C(NCc1ccccc1O)[C@@H]1C[C@]23CCN(CC4CC4)[C@H](Cc4ccc(O)cc42)[C@]3(O)C1`
Data returned: 0

* * *

target: UniProt P35372; test: μ-opioid receptor [35S]GTPγS functional assay, HEK-293 or CHO cells (Table 4); assay type: biochemical; settings: relative to DAMGO
Measured endpoint: Emax (%)
Output spec: scalar in %, unitless text.

Data request: Please respond with reported Emax (system UniProt P35372) for `O=C([C@@H]1C[C@]23CCN(CC4CC4)[C@H](Cc4ccc(O)cc42)[C@]3(O)C1)N1CCSCC1` .
Data returned: 1

Data request: Please respond with reported Emax (system UniProt P35372) for `O=C(NCc1ccc(O)cc1O)[C@H]1C[C@]23CCN(CC4CC4)[C@H](Cc4ccc(O)cc42)[C@]3(O)C1` .
Data returned: 1

Data request: Please respond with reported Emax (system UniProt P35372) for `O=C(NCc1ccncc1)[C@@H]1C[C@]23CCN(CC4CC4)[C@H](Cc4ccc(O)cc42)[C@]3(O)C1` .
Data returned: 8.14

***
Data request: Please respond with reported Emax (system UniProt P35372) for `O=C([C@@H]1C[C@]23CCN(CC4CC4)[C@H](Cc4ccc(O)cc42)[C@]3(O)C1)N1CCN(c2ccccc2)CC1` .
Data returned: 12.8

Value source: patent US9656962B2
